# Assay comment: NCI Yeast Anticancer Drug Screen. Data for the cln2 rad14 strain (AID 165);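 also: 0% = growth equal to vehicle treated cultures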
# Condition details: S. cerevisiae cln2 rad14 strain, at 5.0 µM (retest, dose inferred, filed as 0.5), stronger effect = higher value
Compounds without any hit were thinned out: in the full panel of roughly 79,000, 15% have a hit.
Each entry below lists one item and its recorded growth inhibition value.
Endpoint: growth inhibition (%)

INSERT INTO assay_data (compound, endpoint, recorded_value) VALUES
  ('CCN(CC)CCSc1c2ccccc2nc2cc(NCC(=O)Nc3ccccc3-c3ccccc3NC(=O)CNc3ccc4c(SCCN(CC)CC)c5ccccc5nc4c3)ccc12', 'growth inhibition', 15),
  ('O=C(CCCN1CCC2(CC1)OC(=O)N(c1ccccc1)C2=O)c1ccccc1', 'growth inhibition', 64),
  ('COc1ccc(/C(=N/O)c2ccccc2C2=Nc3ccccc3C(NCc3ccccc3)O2)cc1C (stereo not given)', 'growth inhibition', 31),
  ('Cc1cccc[c]1[Sn]([Cl])([S]/C(C#N)=N/N=C/c1ccc(N(C)C)cc1)[c]1ccccc1C', 'growth inhibition', 25),
  ('COc1ccc(C(=O)NCCN(C)C)c2nc3ccccc3cc12', 'growth inhibition', 17),
  ('Cc1cnccc1N=Nc1ccc(N(C)C)cc1', 'growth inhibition', -43),
  ('CCCCCCCCCCCCCCCCOCC(Cl)COP(=O)(O)OP(=O)(O)OCC1OC(n2cnc3c(N)ncnc32)C(O)C1O (stereo not given)', 'growth inhibition', 24),
  ('O=C(/C(=C/c1ccccc1)CBr)c1ccccc1', 'growth inhibition', 25),
  ('c1ccc2cc(OCC3CO3)c(OCC3CO3)cc2c1 (stereo not given)', 'growth inhibition', 14),
  ('Oc1ccc(Br)cc1C=Nc1cccc(C(F)(F)F)c1', 'growth inhibition', 28);

All figures here come from PubChem BioAssay (NCI).
